Where do these numbers come from? They come from PubChem BioAssay.

Target: Dihydroorotate dehydrogenase (quinone), mitochondrial (Plasmodium falciparum (isolate 3D7))
Test: PfDHODH enzyme inhibitors, primary screen, biochemical, C-terminal His tag, absorbance 600 nm (AID 1175);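 further: recombinant parasite enzyme with a five histidine tag at its C terminus; test concentration not given here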
Conditions: DCIP absorbance 600 nm, higher = more signal, called active from +8 up or from −8 down
// composite z-score lookup, one value per entry
Give only the figure.

# example entries with known answers
molecule	measurement.kind	recorded.value
C#CCCCON=C1C[C@@H](O)[C@@H](O)[C@@H]2[C@@H]3C(=O)N([C@@H](C)c4ccccc4)C(=O)[C@@H]3CC[C@@H]12	composite z-score	0.579
CO[C@H]1COC(=O)[C@H](C)COC(=O)[C@@H](OCc2ccccc2)C=C[C@@H]1C	composite z-score	0.175
CCOC(=O)CCN1C(=O)[C@H]2[C@H]3[C@H](O)[C@H](O)CC(=NNC(=O)OCc4ccccc4)[C@H]3CC[C@H]2C1=O	composite z-score	-0.192
CC(CCC(=O)OC[C@H]1O[C@H](C#Cc2ccccc2)C=C[C@@H]1Oc1ccc(C)cc1)=NOC(C)CN1CCCc2nc(C)c(C)cc21 (stereo not given in full)	composite z-score	0.589

The record that follows has no composite z-score shown yet.
Bench note: what composite z-score did CCN1C(=O)[C@H]2[C@@H]3C(=CC[C@H]2C1=O)C(=O)[C@H]1O[C@H]1[C@H]3O show?
-0.0207
